These data points were gathered from patent US20090042726A1.

Hi there, I'd appreciate the recorded POATR herbicidal action (damage score 0-10) for every entry that follows.
System: Monocotyledonous and dicotyledonous test plants
Assay: Herbicidal action, application pre-emergence (Example B1)
Assay type: in vivo
Parameters: key: 10=total damage to plant; 0=no damage to plant
Settings: Poa trivialis, 1000 g/ha, evaluated after 9 or 13 days
# output: bare number, no unit

Entry under review: CC(C)n1nc(C[S+]([O-])C2=NOC(C)(C)C2F)c(C(F)(F)F)n1 (single isomer, unassigned) [7.25] . Reported POATR herbicidal action (damage score 0-10)? 10

And for Cn1nc(C(F)(F)F)cc1C[S+]([O-])C1=NOC(C)(C)C1F (mixture of isomers) [6.03] ? 10

Request: Cn1nc(C(F)(F)F)c(CS(=O)(=O)C2=NOC(C)(C)C2Cl)c1OC(F)F (centres unmarked) [2.18] 9

Can you handle Cn1cc(C(F)(F)F)c(C[S+]([O-])C2=NOC(C)(C)C2F)n1 (mixture of isomers) [4.02] next? 10

Item: CC1(C)ON=C([S+]([O-])Cc2c(F)cccc2F)C1F (single isomer, unassigned) [1.16] 10

Param item: Cn1nc(C(F)(F)F)cc1CS(=O)(=O)C1=NOC(C)(C)C1F (centres unmarked) [6.04] 10

How about C=CCn1cc(C[S+]([O-])C2=NOC(C)(C)C2F)c(C(F)(F)F)n1 (mixture of isomers) [2.52] ? 9

Proceed to Cn1nc(C(F)(F)F)c(C[S+]([O-])C2=NOC(C)(C)C2F)c1OCC(F)(F)F (single isomer, unassigned) [2.10] 10

Next molecule up: COCCOc1c(CS(=O)(=O)C2=NOC(C)(C)C2F)c(C(F)(F)F)nn1C (centres unmarked) [2.59] 10

Repeat with Cc1nn(C)nc1CS(=O)(=O)C1=NOC(C)(C)C1F (centres unmarked) [7.04] 10

Ok, now Cn1nc(C(F)(F)F)c(C[S+]([O-])C2=NOC(C)(C)C2(Cl)Cl)c1OCC(F)(F)F (centres unmarked) [2.20] 8

Could you do the same for CCn1cc(CS(=O)(=O)C2=NOC(C)(C)C2F)c(C(F)(F)F)n1 (centres unmarked) [2.47] , please? 10

Next: CC(c1nn(C)cc1C(F)(F)F)S(=O)(=O)C1=NOC(C)(C)C1F (centres unmarked) [4.04] 8

Would you mind doing CC1(C)ON=C(S(=O)(=O)Cc2c(F)cccc2F)C1F (centres unmarked) [1.17] as well? 10

Do the same for Cn1nc(C(F)(F)F)c(Cl)c1CS(=O)(=O)C1=NOC(C)(C)C1F (centres unmarked) [6.07] please 10

How about this molecule: Cn1nc(CS(=O)(=O)C2=NOC(C)(C)C2F)c(C(F)(F)F)c1C#N (centres unmarked) [4.09] 4

Now this one: CCc1nn(C)nc1C[S+]([O-])C1=NOC(C)(C)C1F (mixture of isomers) [7.32] 9

Again, but for CC1(C)ON=C([S+]([O-])Cc2nn(C3CCCC3)nc2C(F)(F)F)C1F (single isomer, unassigned) [7.12] 10

Then this molecule: C#CCn1cc(C[S+]([O-])C2=NOC(C)(C)C2F)c(C(F)(F)F)n1 (mixture of isomers) [2.49] 10

Also check Cn1nnc(Br)c1CS(=O)(=O)C1=NOC(C)(C)C1F (centres unmarked) [11.03] 10

Now consider Cn1nc(OC(F)F)cc1C[S+]([O-])C1=NOC(C)(C)C1F (mixture of isomers) [6.09] and answer again. 9

One more molecule: Cn1nnc(Br)c1C[S+]([O-])C1=NOC(C)(C)C1F (mixture of isomers) [11.02] 10

Then Cn1nc(C(F)(F)F)c(CSC2=NOC(C)(C)C2F)c1F (centres unmarked) [Compound No. 2.54] ? 10

Further, for COc1cc(C[S+]([O-])C2=NOC(C)(C)C2F)n(C)n1 (mixture of isomers) [6.12] ? 10

Entry to check: CC1(C)ON=C([S+]([O-])Cc2cccnc2Cl)C1F (mixture of isomers) [3.05] 10

For Cc1nn(C)c(OCC(F)(F)F)c1CS(=O)(=O)C1=NOC(C)(C)C1F (centres unmarked) [2.63] then? 10
